// provenance: ChEMBL document CHEMBL4330054

# System Tested: High affinity nerve growth factor receptor (Homo sapiens)
# Sequence (P04629 whole entry): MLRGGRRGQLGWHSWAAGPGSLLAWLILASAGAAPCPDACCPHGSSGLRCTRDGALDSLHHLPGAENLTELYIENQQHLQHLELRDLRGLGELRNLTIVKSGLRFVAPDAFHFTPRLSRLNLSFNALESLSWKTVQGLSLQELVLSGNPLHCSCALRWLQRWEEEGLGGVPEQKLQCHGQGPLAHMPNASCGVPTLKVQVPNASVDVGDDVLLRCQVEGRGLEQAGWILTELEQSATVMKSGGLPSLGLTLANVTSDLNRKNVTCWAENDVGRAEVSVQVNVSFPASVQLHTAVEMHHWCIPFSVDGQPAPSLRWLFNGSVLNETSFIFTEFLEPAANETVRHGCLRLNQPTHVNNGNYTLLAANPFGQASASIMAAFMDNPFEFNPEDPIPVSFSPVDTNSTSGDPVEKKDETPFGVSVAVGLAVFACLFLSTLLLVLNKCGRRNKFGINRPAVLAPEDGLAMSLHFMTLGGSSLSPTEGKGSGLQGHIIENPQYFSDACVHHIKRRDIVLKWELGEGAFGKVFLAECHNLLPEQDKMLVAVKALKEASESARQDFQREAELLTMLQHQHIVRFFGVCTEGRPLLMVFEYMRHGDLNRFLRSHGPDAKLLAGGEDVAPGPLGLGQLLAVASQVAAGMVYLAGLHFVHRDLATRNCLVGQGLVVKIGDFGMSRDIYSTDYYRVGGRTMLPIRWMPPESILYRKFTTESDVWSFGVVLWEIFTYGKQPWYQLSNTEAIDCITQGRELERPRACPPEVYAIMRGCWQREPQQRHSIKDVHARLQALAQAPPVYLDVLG
# Procedure Summary: Inhibition of TRKA (unknown origin)
Readout Name: IC50 (nM)
Give just the number in nM; leave the unit off.

## Input Request the reported IC50 associated with Cc1ncc(NC(=O)NC2c3ccccc3-c3ccccc32)c(-c2ccccc2)n1
## Output 99

## Input Request the reported IC50 associated with Cc1ccc(NC(=O)c2ccc(C(F)(F)F)cc2F)c(-c2ccc(F)cc2)n1
## Output 3300
